Test system: ectopics
assay remarks: Conscious dogs with ligation of a coronary artery according to Harris: ectopics and convulsions
Type: in vivo
condition info: Canis lupus familiaris; iv.; accumulative end dose giving 50% reduction of ectopics; read-out: Conscious dog Harris ligation Ectopics -50%
measured attribute: ED50

Example results:
[
  {
    "compound": "COCCc1ccc(OCC(O)CNCCc2ccc(O)cc2)cc1 (centres unmarked) [Ex. 2]",
    "tested target": "ectopics",
    "assay value": "4 mg/kg"
  },
  {
    "compound": "COCCc1ccc(OCC(O)CNCc2ccccc2)cc1 (centres unmarked) [Ex. 9]",
    "tested target": "ectopics",
    "assay value": "2 mg/kg"
  }
]

## Input // lookup ED50 | system=ectopics | key= COCc1ccc(OCC(O)CNCCCCc2ccccc2)cc1 (centres unmarked) [Ex. 8]
## Output 4 mg/kg

## Input Also need CC(=O)Nc1ccc(OCC(O)CNC(C)C)cc1 (centres unmarked) [Practolol, reference compound] , thanks.
## Output > 16 mg/kg

## Input Also need COCCc1ccc(OCC(O)CNCCCCc2ccc(OC)c(OC)c2)cc1 (centres unmarked) [Ex. 15] , thanks.
## Output 1 mg/kg

* * *

System: chloroform induced ventricular tachy-cardia
assay remarks: Alternative chloroform test on mice: ventricular tachycardia inhibition and ataxia
Assay type: in vivo
condition info: Mus musculus; sc.; mice, chloroform; groups of 10 animals per dose-level
measured attribute: ED50

Example results:
[
  {
    "compound": "COCc1ccc(OCC(O)CNCCc2ccccc2)cc1 (stereo not drawn)",
    "tested target": "chloroform induced ventricular tachy-cardia",
    "assay value": "~50 mg/kg"
  },
  {
    "compound": "COCc1ccc(OCC(O)CNCc2ccccc2)cc1 (stereo not drawn)",
    "tested target": "chloroform induced ventricular tachy-cardia",
    "assay value": "~200 mg/kg"
  }
]

For the next question, use this compound.
## Input I'd like to know its ED50. The compound in question is CC(C)NC[C@@H](O)COc1cccc2ccccc12
## Output ~8 mg/kg

* * *

Test system: ectopics
assay remarks: Conscious dogs with ligation of a coronary artery according to Harris: ectopics and convulsions
Assay type: in vivo
condition info: Canis lupus familiaris; iv.; accumulative end dose giving 50% reduction of ectopics; read-out: Conscious dog Harris ligation Ectopics -50%
measured attribute: ED50 (mg/kg)
Quick reminder: number only, in mg/kg, skip the unit.

Example results:
[
  {
    "compound": "Cc1cccc(C)c1NC(=O)C(C)N (stereo not drawn) [Tocainide, reference compound]",
    "unit info": "mg/kg",
    "ED50": 4
  },
  {
    "compound": "COCc1ccc(OCC(O)CNCc2ccccc2)cc1 (stereo not drawn) [Ex. 6]",
    "unit info": "mg/kg",
    "ED50": 8
  },
  {
    "compound": "COCc1ccc(OCC(O)CNCCc2ccccc2)cc1 (stereo not drawn) [Ex. 7]",
    "unit info": "mg/kg",
    "ED50": 4
  },
  {
    "compound": "CC(C)NCC(O)COc1cccc2ccccc12 (stereo not drawn) [Propranolol]",
    "unit info": "mg/kg",
    "ED50": 1
  },
  {
    "compound": "CC(C)NC[C@@H](O)COc1cccc2ccccc12 [D-Propranolol]",
    "unit info": "mg/kg",
    "ED50": 1
  }
]

## Input // lookup ED50 | system=ectopics | key= COCCc1ccc(OCC(O)CNC(C)C)cc1 (stereo not drawn) [Metoprolol]
## Output 4

## Input Also need COCCc1ccc(OCC(O)CNCCCCc2ccccc2)cc1 (stereo not drawn) [Ex. 11] , thanks.
## Output 1

## Input Also need COCCc1ccc(OCC(O)CNCCCc2ccccc2)cc1 (stereo not drawn) [Ex. 10] , thanks.
## Output 2

## Input Also need COCCc1ccc(OCC(O)CNCCOc2ccccc2)cc1 (stereo not drawn) [Ex. 13] , thanks.
## Output 4
